These data points were gathered from patent US9790169B2.

target: human IDO1 (Homo sapiens); assay: Assessment of human IDO-1 inhibitory activity in HEK cells (human IDO1/HEK293 cells, kynurenine read-out with Ehrlich reagent, absorbance 490 nm); assay type: cell-based; design: expressed in transfected cells; settings: HEK Human IDO-1 cellular assay
Sequence (P14902 whole entry): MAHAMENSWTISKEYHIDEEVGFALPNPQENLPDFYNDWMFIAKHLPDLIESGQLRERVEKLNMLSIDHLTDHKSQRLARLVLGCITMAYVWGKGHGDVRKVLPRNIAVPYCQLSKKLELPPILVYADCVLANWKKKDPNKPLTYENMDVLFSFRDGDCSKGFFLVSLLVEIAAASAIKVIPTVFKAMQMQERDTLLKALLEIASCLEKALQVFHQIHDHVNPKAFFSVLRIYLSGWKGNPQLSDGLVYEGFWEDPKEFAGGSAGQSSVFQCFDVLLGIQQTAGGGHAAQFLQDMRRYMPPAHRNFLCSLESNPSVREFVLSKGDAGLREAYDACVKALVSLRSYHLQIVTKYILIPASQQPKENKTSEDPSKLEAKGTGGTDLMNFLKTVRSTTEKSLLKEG
pIC50: −log10 of the molar value.
Below: a set of entries, each annotated with reported pIC50.

Consider the following illustrative entries.
## Input State the recorded pIC50 for this entry: COCC(CC(=O)O)c1ccc(N(CC(C)C)C2CCCCC2)c(NC(=O)Cc2ccc(Cl)cc2F)c1 (single isomer, unassigned)
## Output > 8.30

## Input # iterate: CCC(CC(=O)O)c1cc(NC(=O)Nc2cncnc2)c(N(CC(C)C)C2CCCCC2)cc1F (single isomer, unassigned) [Example 1123]
## Output > 8.30

## Input # iterate: CCC(CC(=O)O)c1cc(F)c(N(CC(C)C)CC(C)C)c(NC(=O)Nc2cc(C(F)(F)F)ccc2F)c1 (racemic)
## Output > 7.30

## Input # iterate: CC[C@@H](CC(=O)O)c1ccc(N(CC(C)C)CC(C)C)c(Nc2ccc(Cl)cc2)c1 (single isomer, unassigned)
## Output > 7.30

## Input # iterate: CCOc1ccc(NC(=O)Nc2cc(C(COC)CC(=O)O)cc(F)c2N(CC(C)C)CC(C)C)c(F)c1 (single isomer, unassigned) [Example 1178]
## Output > 7.30

---
## Input State the recorded pIC50 for this entry: COCC(CC(=O)O)c1cc(F)c(N(CC(C)C)C2CCCCC2)c(NC(=O)Nc2ccc(Cl)cc2F)c1 (single isomer, unassigned)
## Output > 8.30

## Input # iterate: CCOc1ncc(Nc2cc(C(CC)CC(=O)O)ccc2N2CCOC[C@H]2C(C)C)cn1 (single isomer, unassigned) [Example 903]
## Output > 7.30

## Input # iterate: CCOc1ncc(Nc2cc(C(C)CC(=O)O)ccc2N(CC)C2CCOCC2)cn1 (single isomer, unassigned)
## Output > 7.30

## Input # iterate: CCC(CC(=O)O)c1ccc(N(CC(C)C)C2CCCCC2)c(Nc2ccc3nc(C)sc3c2)c1 (single isomer, unassigned)
## Output > 8.30
